- ASSAY TEXT: Cardiovascular activity in guinea pig spontaneously beating right atrium assessed as negative chronotropic activity by measuring decrease of atrial rate
- Type: functional
- TEST CONTEXT: Cavia porcellus, Cardiac atrium
PARAMETER: EC30 (µM)
Give bare numbers, in µM.

Known results for molecules:
Nc1nc(SCc2ccccc2)[nH]c(=O)c1N(Cc1ccccc1)Cc1ccccc1 :: 8.63
CCn1c(SCc2ccccc2)nc(NC(C)=O)c(N(Cc2ccccc2)Cc2ccccc2)c1=O :: 14.1
CC(=O)Nc1nc(SCc2ccccc2)[nH]c(=O)c1N(Cc1ccccc1)Cc1ccccc1 :: 6.79

--- query ---
Reported EC30, molecule "CCn1c(SCc2ccccc2)nc(N)c(N(Cc2ccccc2)Cc2ccccc2)c1=O" : ____ 18.1

====

- ASSAY TEXT: Cardiovascular activity in guinea pig left atrium assessed as negative inotropic activity by measuring decrease of 1 Hz-induced tension
- Type: functional, tissue-based
- TEST CONTEXT: Cavia porcellus, Cardiac atrium
Lab note: cut-off is 400 nM. Strictly less in EC50 is y. Exactly 400 nM or more is n.

Would you please look over these solved cases?
CCCSc1nc(N)c(N(CCC)CCC)c(=O)[nH]1 :: n
CCn1c(SCc2ccccc2)nc(N)c(N(Cc2ccccc2)Cc2ccccc2)c1=O :: n
CCCSc1nc(NC(C)=O)c(N(CCC)CCC)c(=O)n1CC :: n
CCOc1nc(SCc2ccccc2)nc(NC(C)=O)c1N(Cc1ccccc1)Cc1ccccc1 :: y
CC(=O)Nc1nc(SCc2ccccc2)[nH]c(=O)c1N(Cc1ccccc1)Cc1ccccc1 :: n

Quick check: does "CCCSc1nc(NC(C)=O)c(N(CCC)CCC)c(=O)[nH]1" have EC50 under 400 nM? y

Please answer likewise for "CCOc1nc(SCCOC)nc(NC(C)=O)c1N(CCOC)CCOC" n

Another molecule: "CCn1c(SCc2ccccc2)nc(NC(C)=O)c(N(Cc2ccccc2)Cc2ccccc2)c1=O" y

Subsequent entry: "CCOc1nc(SCc2ccccc2)nc(N)c1N(Cc1ccccc1)Cc1ccccc1" n

What do you get for "CCn1c(SCCOC)nc(NC(C)=O)c(N(CCOC)CCOC)c1=O" ? n

====

- ASSAY TEXT: Vasorelaxant activity in guinea pig K+-depolarized guinea pig longitudinal smooth muscle assessed as inhibition of calcium-induced contraction
- Format: functional, Cavia porcellus
pIC50: −log10 of the molar value.
// -1 strictly below 5 in pIC50; 1 otherwise

Please review the entries below; each comes with its answer.
CCCSc1nc(NC(C)=O)c(N(CCC)CCC)c(=O)n1CC :: 1
CCCSc1nc(N)c(N(CCC)CCC)c(=O)n1CC :: 1
CCn1c(SCCOC)nc(N)c(N(CCOC)CCOC)c1=O :: -1
CCn1c(SCc2ccccc2)nc(NC(C)=O)c(N(Cc2ccccc2)Cc2ccccc2)c1=O :: 1
CCn1c(SCCOC)nc(NC(C)=O)c(N(CCOC)CCOC)c1=O :: -1

Please turn your attention to the following entry.
Does pIC50 meet or surpass 5 for "CCn1c(SCc2ccccc2)nc(N)c(N(Cc2ccccc2)Cc2ccccc2)c1=O" ? 1

====

- ASSAY TEXT: Cardiovascular activity in guinea pig spontaneously beating right atrium assessed as negative chronotropic activity by measuring decrease of atrial rate at 5 x 10^-5 M relative to control
- Assay type: functional
- TEST CONTEXT: Cavia porcellus, Cardiac atrium
For each entry below, report its inhibition at 50 µM value.
Report field: quantity (unit follows the number).

CCCSc1nc(N)c(N(CCC)CCC)c(=O)[nH]1 :: 39%
COCCSc1nc(NC(C)=O)c(N(CCOC)CCOC)c(=O)[nH]1 :: 6%
CCn1c(SCc2ccccc2)nc(NC(C)=O)c(N(Cc2ccccc2)Cc2ccccc2)c1=O :: 72%
CCCSc1nc(NC(C)=O)c(N(CCC)CCC)c(=O)n1CC :: 13%

Then this compound:
Which inhibition at 50 µM value is on record for "CCCSc1nc(N)c(N(CCC)CCC)c(=O)n1CC" ? 22%
